meta.source: the supplement of paper PMC10567573

# ASSAY: protein stability index of a GFP-peptide fusion (GPS, HEK-293T) (PSI 1-6); higher = more stable;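 also: 24-mer peptide tiles fused after GFP, lentivirally expressed, FACS-sorted into six equal bins by GFP/DsRed ratio, decoded by Illumina sequencing, PSI is the read-weighted mean bin number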
# TEST_PARAMETERS: treatment: MLN4924 1 uM, 8 h; c terminus: a fixed tail appended
MEASURE_NAME: protein stability index
Note: the reply should be a number with no unit written.

Field: example entries. Status: answers known.
ITEM_SEQUENCE: LEQKTQESQKKKQQDDSDEYDDDD [ZNF207]
protein stability index: 5.61
//
ITEM_SEQUENCE: SGGQTSWDSGCLAPPSTRTSHSLP [PLEKHN1]
protein stability index: 3.98
//
ITEM_SEQUENCE: KLKDLSTVTSLQVPVLKPMDLMVE [PPP2R2C]
protein stability index: 3.43
//
ITEM_SEQUENCE: GPLLDSLYWTKWYNNQSLGHGSHS [PKD2L1]
protein stability index: 2.47
//
ITEM_SEQUENCE: GSLGPVPVLRFDALWQVLARDCFA [TRIM14]
protein stability index: 2.89

protein stability index for ATSLFVELDEEEVKAATTEPTEVE [BCL2L13] ? 5.62

What protein stability index value was documented for this sequence, EDLTPEDDMPIGRNVLELNDVRQS [PTPRD] ? 5.19

If you can, please state the reported protein stability index value of LLLNNANPNLSNRRGSTPLHMAVE [RIPK4] . 2.73

Bench note: what protein stability index did VFGFIAAYVLSKYQYFVCPVEYRS [CDS1] show? 3.15

Fill blank: measured protein stability index of the sequence LRHLELLDEFARENIDSLYNVNLS [SCNN1D] is ____. 2.94

Which value of protein stability index has been reported for RVWLKRDSGQYWPSIYHTMASPCS [WDFY1] in the records? 2.16

Return reported protein stability index; argument: GGTGSGDGNKIFLCHCGKAFSHKS [ZBTB22] 2.58

Request the reported protein stability index associated with SPLYADPYTPPATSHRRVTDVRGL [PLEKHN1] 3.63
